These measurements were taken from paper PMC12249833.

# tested on: HDAC6 (Homo sapiens, UniProt Q9UBN7)
# Sequence (Q9UBN7 whole entry, species assumed): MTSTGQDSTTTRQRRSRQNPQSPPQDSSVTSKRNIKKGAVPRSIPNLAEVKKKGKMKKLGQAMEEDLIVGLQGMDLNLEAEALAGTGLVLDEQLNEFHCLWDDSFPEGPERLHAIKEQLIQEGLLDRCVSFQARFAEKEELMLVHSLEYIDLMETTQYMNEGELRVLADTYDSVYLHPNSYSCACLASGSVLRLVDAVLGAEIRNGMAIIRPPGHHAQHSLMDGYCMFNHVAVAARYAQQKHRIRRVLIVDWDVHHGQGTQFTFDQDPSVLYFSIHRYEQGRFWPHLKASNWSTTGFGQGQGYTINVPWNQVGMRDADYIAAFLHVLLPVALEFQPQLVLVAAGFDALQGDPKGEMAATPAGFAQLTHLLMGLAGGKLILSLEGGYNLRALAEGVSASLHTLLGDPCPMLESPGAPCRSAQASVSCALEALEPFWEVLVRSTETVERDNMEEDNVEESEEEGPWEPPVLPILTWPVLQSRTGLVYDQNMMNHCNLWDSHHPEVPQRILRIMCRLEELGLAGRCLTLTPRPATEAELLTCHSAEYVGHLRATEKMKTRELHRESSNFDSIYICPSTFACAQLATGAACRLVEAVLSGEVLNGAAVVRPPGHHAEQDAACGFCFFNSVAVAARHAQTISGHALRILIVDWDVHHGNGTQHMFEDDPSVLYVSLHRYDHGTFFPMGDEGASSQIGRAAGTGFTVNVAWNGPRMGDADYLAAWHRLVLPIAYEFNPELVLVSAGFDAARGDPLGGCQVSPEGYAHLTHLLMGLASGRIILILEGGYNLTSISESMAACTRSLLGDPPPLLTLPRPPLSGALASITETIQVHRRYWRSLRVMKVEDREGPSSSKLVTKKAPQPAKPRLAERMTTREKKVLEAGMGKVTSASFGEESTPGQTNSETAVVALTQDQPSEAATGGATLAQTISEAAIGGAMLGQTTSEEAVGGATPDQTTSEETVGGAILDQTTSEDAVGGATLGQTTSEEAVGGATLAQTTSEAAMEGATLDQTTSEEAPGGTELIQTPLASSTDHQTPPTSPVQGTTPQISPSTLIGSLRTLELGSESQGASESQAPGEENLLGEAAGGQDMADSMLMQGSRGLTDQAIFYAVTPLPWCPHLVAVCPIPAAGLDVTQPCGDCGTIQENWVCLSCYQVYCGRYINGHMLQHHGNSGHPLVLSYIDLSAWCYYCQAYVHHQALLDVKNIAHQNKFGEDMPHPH
outcome measure: IC50 (µM)
Give bare numbers, in µM.

[
  {
    "molecule": "Cc1cccc2nc(SCc3ccc(C(=O)NO)cc3)n(-c3ccc(Cl)cc3)c(=O)c12",
    "outcome measure": "IC50",
    "value measured": 0.9
  }
]

## Task Fill blank: measured IC50 of the molecule Oc1c(C(Nc2cccc(C(F)(F)F)c2)c2ccncc2)ccc2cccnc12 (stereo not drawn) is ____.
## Result 67

* * *

# tested on: HDAC1 (Homo sapiens, UniProt Q13547)
# Sequence (Q13547 whole entry, species assumed): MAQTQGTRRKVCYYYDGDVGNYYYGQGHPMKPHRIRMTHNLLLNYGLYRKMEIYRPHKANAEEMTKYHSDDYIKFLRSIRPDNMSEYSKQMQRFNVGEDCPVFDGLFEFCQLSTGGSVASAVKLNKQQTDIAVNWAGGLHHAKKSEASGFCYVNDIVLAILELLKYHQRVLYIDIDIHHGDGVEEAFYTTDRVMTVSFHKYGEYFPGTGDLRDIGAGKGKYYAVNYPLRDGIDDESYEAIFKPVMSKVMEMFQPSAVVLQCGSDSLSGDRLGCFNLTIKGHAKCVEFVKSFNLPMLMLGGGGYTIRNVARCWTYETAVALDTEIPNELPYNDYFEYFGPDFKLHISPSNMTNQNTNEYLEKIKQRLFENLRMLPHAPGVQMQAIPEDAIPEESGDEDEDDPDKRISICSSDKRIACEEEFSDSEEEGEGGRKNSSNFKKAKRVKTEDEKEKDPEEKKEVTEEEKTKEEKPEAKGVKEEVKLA
pIC50: −log10 of the molar value.
outcome measure: pIC50

## Task Look at this molecule and give its reported pIC50. Oc1c(C(Nc2cccc(C(F)(F)F)c2)c2ccncc2)ccc2cccnc12 (stereo not shown) [9SPC045H03]
## Result < 4.15
